# reported CC50 at 168 h; entries follow
- protocol.summary: in vitro
- condition.summary: human, cem-c113 cells
Quick reminder: number only, in µM, skip the unit.

Cc1cn([C@H]2C[C@H](N=[N+]=[N-])[C@@H](COP(=O)(O)OCCO[C@H]3O[C@H](CO)[C@@H](O)[C@H](O)[C@@H]3O)O2)c(=O)[nH]c1=O : 25

Consider the record given below.
Ask: Look at this molecule and give its reported CC50 at 168 h. CCCCCCCCCCCCCCCCOP(=O)(OC[C@H]1OC(O)[C@@H](O)[C@@H](O)[C@@H]1O)OC[C@H]1O[C@@H](n2cc(C)c(=O)[nH]c2=O)C[C@@H]1N=[N+]=[N-] (stereo partly drawn)
Result: 2.6

----------
# reported CC50 at 264 h; entries follow
- protocol.summary: in vitro
- condition.summary: human, cem-c113 cells
Quick reminder: number only, in µM, skip the unit.

CCCCCCCCCCCCCCCCOP(=O)(OC[C@H]1OC(O)[C@@H](O)[C@@H](O)[C@@H]1O)OC[C@H]1O[C@@H](n2cc(C)c(=O)[nH]c2=O)C[C@@H]1N=[N+]=[N-] (stereo partly drawn) : 2.6

Ask: Look at this compound and give its reported CC50 at 264 h. Nc1ccn([C@H]2CC[C@@H](CO)O2)c(=O)n1 [ddC, dideoxycytidine, reference compound]
Result: 0.4

----------
- protocol.summary: HPLC assay of AZT in the brain of mice after oral administration
- Format: in vivo, Swiss mouse
- condition.summary: mouse, brain, po, 25 mg/kg; read-out: Phosphodiester detected by HPLC per gram of brain, individual value
endpoint: concentration at 1 h
# include the unit after the value

Cc1cn([C@H]2C[C@H](N=[N+]=[N-])[C@@H](COP(=O)(O)OC[C@H]3OC(O)[C@@H](O)[C@@H](O)[C@@H]3O)O2)c(=O)[nH]c1=O (some centres unmarked) [CT 7626] : 2050 ng/g

Ask: Look at this molecule and give its reported concentration at 1 h. CCCCCCCCCCCCCCCCOP(=O)(OC[C@H]1OC(O)[C@@H](O)[C@@H](O)[C@@H]1O)OC[C@H]1O[C@@H](n2cc(C)c(=O)[nH]c2=O)C[C@@H]1N=[N+]=[N-] (some centres unmarked) [CT 7627]
Result: 2050 ng/g

----------
- protocol.summary: in vitro
- condition.summary: human, cem-c113 cells
endpoint: CC50 at 456 h (µM)
Quick reminder: number only, in µM, skip the unit.

CCCCCCCCCCCCCCCCOP(=O)(OCCO[C@H]1O[C@H](CO)[C@@H](O)[C@H](O)[C@@H]1O)OC[C@H]1O[C@@H](n2cc(C)c(=O)[nH]c2=O)C[C@@H]1N=[N+]=[N-] (stereo partly drawn) [CT 7625] : 3.4
Cc1cn([C@H]2C[C@H](N=[N+]=[N-])[C@@H](COP(=O)(O)OC[C@H]3OC(O)[C@@H](O)[C@@H](O)[C@@H]3O)O2)c(=O)[nH]c1=O (stereo partly drawn) [CT 7626] : 24

Consider the record given below.
Ask: Look at this compound and give its reported CC50 at 456 h. CCCCCCCCCCCCCCCCOP(=O)(OC[C@H]1OC(O)[C@@H](O)[C@@H](O)[C@@H]1O)OC[C@H]1O[C@@H](n2cc(C)c(=O)[nH]c2=O)C[C@@H]1N=[N+]=[N-] (stereo partly drawn) [CT 7627]
Result: 2.5

----------
- protocol.summary: in vitro
- condition.summary: human, cem-c113 cells
endpoint: CC50 at 528 h (µM)
Quick reminder: number only, in µM, skip the unit.

Solved entries (count: 2):
Cc1cn([C@H]2C[C@H](N=[N+]=[N-])[C@@H](COP(=O)(O)OC[C@H]3OC(O)[C@@H](O)[C@@H](O)[C@@H]3O)O2)c(=O)[nH]c1=O (stereo partly drawn) : 24
CCCCCCCCCCCCCCCCOP(=O)(OC[C@H]1OC(O)[C@@H](O)[C@@H](O)[C@@H]1O)OC[C@H]1O[C@@H](n2cc(C)c(=O)[nH]c2=O)C[C@@H]1N=[N+]=[N-] (stereo partly drawn) : 25

Consider the record given below.
Ask: Look at this molecule and give its reported CC50 at 528 h. CCCCCCCCCCCCCCCCOP(=O)(OCCO[C@H]1O[C@H](CO)[C@@H](O)[C@H](O)[C@@H]1O)OC[C@H]1O[C@@H](n2cc(C)c(=O)[nH]c2=O)C[C@@H]1N=[N+]=[N-] (stereo partly drawn)
Result: 24

----------
# reported EC50; entries follow
- Test system: HIV virus (isolate LAV1-BRU)
- protocol.summary: inhibition of the cytopathogenic effect (CPE) of the HIV virus toward a continuous line of T4 lymphocytes by colorimetric assay with MTT
- Type: cell-based
- condition.summary: Human immunodeficiency virus 1, CEM-c113, read-out: ED50 (protective dose 50%), D22 of culture, CEM-C113 cells
Quick reminder: number only, in nM, skip the unit.

Solved entries (count: 2):
CCCCCCCCCCCCCCCCOP(=O)(OC[C@H]1OC(O)[C@@H](O)[C@@H](O)[C@@H]1O)OC[C@H]1O[C@@H](n2cc(C)c(=O)[nH]c2=O)C[C@@H]1N=[N+]=[N-] (some centres unmarked) : 400
Cc1cn([C@H]2C[C@H](N=[N+]=[N-])[C@@H](COP(=O)(O)OCCO[C@H]3O[C@H](CO)[C@@H](O)[C@H](O)[C@@H]3O)O2)c(=O)[nH]c1=O : 800

Consider the record given below.
Ask: Look at this compound and give its reported EC50. Cc1cn([C@H]2C[C@H](N=[N+]=[N-])[C@@H](COP(=O)(O)OC[C@H]3OC(O)[C@@H](O)[C@@H](O)[C@@H]3O)O2)c(=O)[nH]c1=O (some centres unmarked)
Result: 600

----------
- protocol.summary: in vitro
- condition.summary: human, cem-c113 cells
# reported CC50 at 168 h; entries follow
Quick reminder: number only, in µM, skip the unit.

CCCCCCCCCCCCCCCCOP(=O)(OCCO[C@H]1O[C@H](CO)[C@@H](O)[C@H](O)[C@@H]1O)OC[C@H]1O[C@@H](n2cc(C)c(=O)[nH]c2=O)C[C@@H]1N=[N+]=[N-] (stereo partly drawn) : 20

Ask: Look at this compound and give its reported CC50 at 168 h. Nc1ccn([C@H]2CC[C@@H](CO)O2)c(=O)n1 [ddC, dideoxycytidine, reference compound]
Result: 7

----------
# reported reverse transcriptase activity in culture supernatant; entries follow
- System: HIV virus; viral reverse transcriptase
- protocol.summary: inhibition of viral replication by microassay of the enzymatic activity of the viral reverse transcriptase in CEM culture supernatants
- Format: cell-based
- Set-up: unit not given here
- condition.summary: 0.2 uM, D11
Answer with a bare number; do not write a unit.

Solved entries (count: 3):
Cc1cn([C@H]2C[C@H](N=[N+]=[N-])[C@@H](COP(=O)(O)OC[C@H]3OC(O)[C@@H](O)[C@@H](O)[C@@H]3O)O2)c(=O)[nH]c1=O (stereo partly shown) [CT 7626] : 3000
CCCCCCCCCCCCCCCCOP(=O)(OCCO[C@H]1O[C@H](CO)[C@@H](O)[C@H](O)[C@@H]1O)OC[C@H]1O[C@@H](n2cc(C)c(=O)[nH]c2=O)C[C@@H]1N=[N+]=[N-] (stereo partly shown) [CT 7625] : 2900
CCCCCCCCCCCCCCCCOP(=O)(OC[C@H]1OC(O)[C@@H](O)[C@@H](O)[C@@H]1O)OC[C@H]1O[C@@H](n2cc(C)c(=O)[nH]c2=O)C[C@@H]1N=[N+]=[N-] (stereo partly shown) [CT 7627] : 4700

Consider the record given below.
Ask: Look at this compound and give its reported reverse transcriptase activity in culture supernatant. Cc1cn([C@H]2C[C@H](N=[N+]=[N-])[C@@H](COP(=O)(O)OCCO[C@H]3O[C@H](CO)[C@@H](O)[C@H](O)[C@@H]3O)O2)c(=O)[nH]c1=O [CT 7624]
Result: 2800

----------
- Tested on: HIV virus; viral reverse transcriptase
- protocol.summary: inhibition of viral replication by microassay of the enzymatic activity of the viral reverse transcriptase in CEM culture supernatants
- Type: cell-based
- Design: unit not given here
- condition.summary: 0.2 uM, D7
# reported reverse transcriptase activity in culture supernatant; entries follow
Answer with a bare number; do not write a unit.

Cc1cn([C@H]2C[C@H](N=[N+]=[N-])[C@@H](COP(=O)(O)OCCO[C@H]3O[C@H](CO)[C@@H](O)[C@H](O)[C@@H]3O)O2)c(=O)[nH]c1=O [CT 7624] : 4400
CCCCCCCCCCCCCCCCOP(=O)(OCCO[C@H]1O[C@H](CO)[C@@H](O)[C@H](O)[C@@H]1O)OC[C@H]1O[C@@H](n2cc(C)c(=O)[nH]c2=O)C[C@@H]1N=[N+]=[N-] (stereo partly shown) [CT 7625] : 3900
Cc1cn([C@H]2C[C@H](N=[N+]=[N-])[C@@H](COP(=O)(O)OC[C@H]3OC(O)[C@@H](O)[C@@H](O)[C@@H]3O)O2)c(=O)[nH]c1=O (stereo partly shown) [CT 7626] : 3400

Consider the record given below.
Ask: Look at this compound and give its reported reverse transcriptase activity in culture supernatant. CCCCCCCCCCCCCCCCOP(=O)(OC[C@H]1OC(O)[C@@H](O)[C@@H](O)[C@@H]1O)OC[C@H]1O[C@@H](n2cc(C)c(=O)[nH]c2=O)C[C@@H]1N=[N+]=[N-] (stereo partly shown) [CT 7627]
Result: 4000
